Conditions: buffer; pH 7.4; 200.0 µM
Measured solubility kinetic values are reported for all entries that follow.

Worked examples follow.
| Molecule | solubility kinetic |
| --- | --- |
| CCN(CC)C(=O)Cc1ccccc1 | > 28.7 µg/mL |
| Cc1ccc(Cl)c(Nc2ccccc2C(=O)[O-])c1Cl.[Na+] | > 47.7 µg/mL |
| Cc1onc(-c2c(F)cccc2Cl)c1C(O)c1ccc(F)cc1 (stereo not given) | > 50.4 µg/mL |

# solubility kinetic (molecule: COc1cc(/C=N/Nc2ccccn2)cc(OC)c1O ) is > 41 µg/mL

# solubility kinetic (molecule: CC(C)CC(=O)NC(=S)Nc1ccc(N2CCCC2)c(Cl)c1 ) is < 0.2 µg/mL

###

Settings: buffer; pH 7.4; 200.0 µM
Endpoint label: log10 solubility kinetic (log10 of the value in µg/mL)
Please keep in mind that the values are log10 of solubility kinetic expressed in µg/mL.

| Compound | log10 solubility kinetic |
| --- | --- |
| C=C1c2cc(C)c(C)cc2NC(=O)N1c1ccccc1 | 1.39 |
| CC1=C([N+](=O)[O-])C(c2ccc(Cl)cc2)NC(=O)N1C (stereo not drawn) | 1.48 |
| Cc1ccc2c(c1)NC(=O)c1cccc([N+](=O)[O-])c1CO2 | 0.85 |

# log10 solubility kinetic (compound: N#C/C(=C\c1cccs1)C(=O)Nc1ccccn1 ) is 1.11

# log10 solubility kinetic (compound: CN(Cc1nc(CCc2ccccc2)no1)Cc1cccs1 ) is 1.26

# log10 solubility kinetic (compound: Cc1ccc(C(=O)NC23CC4CC(CC(C4)C2)C3)c(Cl)c1 ) is -0.15

# log10 solubility kinetic (compound: O=C(Cc1ccc(F)cc1)Nc1ccccc1N1CCCC1 ) is 1.53

# log10 solubility kinetic (compound: COc1cccc(NC2=C(NCCO)C(=O)c3ccccc3C2=O)c1 ) is 1.68

# log10 solubility kinetic (compound: COc1cc(OC)c(N(C)S(=O)(=O)c2cccc(C(=O)OCC(=O)N3CCOCC3)c2)cc1Cl ) is 1.75

# log10 solubility kinetic (compound: Cn1c(=O)n(CC(=O)O)c(=O)c2c1nc1n2CCCN1Cc1ccccc1 ) is 1.71

# log10 solubility kinetic (compound: CC(C)c1ccccc1NC(=S)NCc1ccncc1 ) is 1.61

###

Details: buffer; pH 7.4; 200.0 µM
Endpoint label: solubility kinetic

| Compound | solubility kinetic |
| --- | --- |
| O=C(CCNC(=O)c1ccc([N+](=O)[O-])cc1)NCc1ccco1 | > 47.6 µg/mL |
| O=C(NCc1ccco1)c1cnn2cccnc12 | > 36.3 µg/mL |
| O=C(Nc1ccc2oc(=O)ccc2c1)c1ccc2ccccc2c1 | < 0.7 µg/mL |
| Cc1cc(C)n(/C(=C\N(C)C)C(=O)c2cccc([N+](=O)[O-])c2)n1 | > 47.2 µg/mL |
| CN1CCN(c2nc(Cl)ncc2F)CC1 | > 34.6 µg/mL |

# solubility kinetic (compound: CCCCCC(=O)NNC1CC(=O)N(c2ccccc2)C1=O (stereo not drawn) ) is > 45.5 µg/mL

# solubility kinetic (compound: CCC(NC(=O)Cc1cccs1)c1ccccc1 (stereo not drawn) ) is > 38.9 µg/mL

# solubility kinetic (compound: CC(C)c1ccccc1NC(=S)NCc1nc2ccccc2[nH]1 ) is > 48.7 µg/mL

###

Details: buffer; pH 7.4; 200.0 µM
Endpoint label: solubility kinetic (µg/mL)
Report the figure in µg/mL without appending any unit label.

Worked examples follow.
| Compound | Endpoint label | Reading unit | Reported |
| --- | --- | --- | --- |
| CSc1ccc(C2NC(=O)c3ccccc3N2)cc1 (centres undefined) | solubility kinetic | µg/mL | 2.6 |
| CS(=O)(=O)c1ccc(Cl)c(NC(=O)Nc2ccccc2)c1 | solubility kinetic | µg/mL | 5.1 |
| CC(=O)Nc1ccc(Nc2ccc([N+](=O)[O-])cn2)cc1 | solubility kinetic | µg/mL | 15.8 |

Turning now to a further record.
# solubility kinetic (compound: COC(=O)c1ccncc1C(=O)Nc1ccc(OC)cc1 ) is 39.4

###

Details: buffer; pH 7.4; 200.0 µM
Endpoint label: solubility kinetic

Worked examples follow.
| Compound | solubility kinetic |
| --- | --- |
| CN(C)c1ccc(/C=N/NC(=O)CNC(=O)c2ccncc2)cc1 | > 48.8 µg/mL |
| CN(CC(O)Cn1cnc2c1c(=O)n(C)c(=O)n2C)c1ccccc1 (stereo unspecified) | > 51.5 µg/mL |
| O=C(O)/C=C/c1ccc(-n2ccnc2)cc1 | > 32.1 µg/mL |
| CCN(Cc1ccncc1)C(=O)c1cccc(S(=O)(=O)N2CCCCC2)c1 | > 58.1 µg/mL |
| O=C(CN1C(=O)C2C3C=CC(C3)C2C1=O)OCC(=O)c1ccc(Cl)cc1 (stereo unspecified) | > 56.1 µg/mL |

# solubility kinetic (compound: CCN(CC)c1ccc(N2C(=O)/C(=C/c3ccccn3)SC2=S)cc1 ) is < 0.3 µg/mL

###

Settings: buffer; pH 7.4; 200.0 µM
Measured solubility kinetic values are reported for all entries that follow.

| Compound | solubility kinetic |
| --- | --- |
| O=C(c1cc([N+](=O)[O-])[nH]n1)N1CCSCC1 | > 36.3 µg/mL |
| O=C(Nc1ccc(C(=O)c2ccccc2)cc1)c1ccccc1 | < 0.6 µg/mL |

# solubility kinetic (compound: CCN1CCc2c(OCC(=O)N3CCc4ccccc43)cccc2C1=O ) is > 52.6 µg/mL

# solubility kinetic (compound: CCC12CN3CCN(CC(C3)/C1=N\NC(=O)c1ccc(Cl)cc1)C2 ) is > 52 µg/mL

# solubility kinetic (compound: O=C(Nc1ccccc1)O/N=C/c1ccc(F)cc1 ) is 12.8 µg/mL

# solubility kinetic (compound: Cc1ccccc1NC(=S)NCCSc1ccc(Cl)cc1 ) is 3.3 µg/mL

# solubility kinetic (compound: O=C(O)c1cccnc1SC1CC(=O)N(c2ccccc2)C1=O (stereo unspecified) ) is > 49.3 µg/mL

# solubility kinetic (compound: CC(C)(C)CC(C)(C)NC(=O)c1ccccc1 ) is > 35 µg/mL

###

Settings: buffer; pH 7.4; 200.0 µM
Measured solubility kinetic values are reported for all entries that follow.

Worked examples follow.
| Compound | solubility kinetic |
| --- | --- |
| COc1ccc(CC(=O)Nc2ccc(S(=O)(=O)N3CCCC3)cc2)cc1OC | > 60.7 µg/mL |
| O=C(CN1CCN(Cc2ccccc2)CC1)N/N=C/c1ccco1 | > 49 µg/mL |
| CC(=O)c1cccc(NC(=O)COC(=O)Cn2cnc3ccccc32)c1 | > 52.7 µg/mL |
| CCCc1ncc(C(O)c2ccccc2OC)n1C (stereo unspecified) | > 39.1 µg/mL |
| Cc1c(C=Nc2ccc(S(=O)(=O)CCO)cc2)c(O)[nH]c(=O)c1C#N | > 54.2 µg/mL |

# solubility kinetic (compound: O=[N+]([O-])c1ccc(SCc2c(F)cccc2Cl)nc1 ) is < 0.3 µg/mL

# solubility kinetic (compound: COc1ccccc1CN(C)C(=O)COC(=O)c1ccc(Cl)nc1 ) is > 52.3 µg/mL

# solubility kinetic (compound: CCc1nc2cccnc2n1-c1ccc(CC(=O)O)cc1 ) is > 42.2 µg/mL

# solubility kinetic (compound: CCn1c(SCC(=O)N2CCCC2)nc2c(c1=O)SCC2 ) is > 48.8 µg/mL

# solubility kinetic (compound: Cc1nonc1NC(=O)CSc1nnc(N)s1 ) is > 40.8 µg/mL

# solubility kinetic (compound: O=C(NCCc1ccccc1F)c1ccc2c(c1)OCCO2 ) is > 45.2 µg/mL

# solubility kinetic (compound: CN(C)c1nc(=S)nc(NCc2ccccc2)[nH]1 ) is > 39.2 µg/mL

# solubility kinetic (compound: Oc1ccc(/C=N/N2CCCCC2)c(O)c1O ) is > 35.4 µg/mL

# solubility kinetic (compound: Cc1ccc2c(CN3CCOCC3)cc(=O)oc2c1C ) is > 41 µg/mL

# solubility kinetic (compound: O=C(NC(=O)c1ccccc1Cl)Nc1ccc(-c2cnco2)cc1 ) is < 0.2 µg/mL

# solubility kinetic (compound: Cc1onc(-c2ccc(Cl)cc2Cl)c1C(=O)/C=C/N(C)C ) is > 48.8 µg/mL

# solubility kinetic (compound: Cc1ccc(C(=O)N/C(=C/c2ccco2)C(=O)NCc2ccco2)cc1 ) is > 52.6 µg/mL

# solubility kinetic (compound: Cc1ccc(S(=O)(=O)Nc2cnc3ccccc3c2)cc1 ) is > 44.8 µg/mL

# solubility kinetic (compound: COc1ccc(CNC(=O)COC(=O)C2CC2C)cc1OC (stereo unspecified) ) is > 46.1 µg/mL

# solubility kinetic (compound: O=C(Nc1ccccc1Cl)C1C(c2ccccc2)C1(Cl)Cl (stereo unspecified) ) is < 0.7 µg/mL

# solubility kinetic (compound: CC(=O)NC(CC(=O)N(C)C1CCCCC1)c1ccccc1 (stereo unspecified) ) is > 45.4 µg/mL
